assay: qHTS assay to identify small molecule antagonists of the retinoid-related orphan receptor gamma (ROR-gamma) signaling pathway - cell viability counter screen (AID 1159520); conditions: Tet-on RORgamma CHO cells viability, ATP luminescence, 16 h; series mostly up to 92.4 µM; also: % is scaled to controls: 0 for no effect and ±100 for the full control effect; nearly all actives have a fitted effect of over 50% in size
Inconclusive results are not listed. Calls of active or inactive are those of the source. Calls follow the shape of the dose curve; as a rule, active = well fitted cell-killing curve with a large enough effect in the repeat runs; inconclusive = weak or mixed curves, or effect the other way; inactive = no such curve, though single readings can be large or run the other way.
Endpoint name: activity, negative = cytotoxicity

Below are worked cases with known answers.
compound=Cc1ccc(Nc2nccc(N(C)c3ccc4c(C)n(C)nc4c3)n2)cc1S(N)(=O)=O endpoint_name="activity, negative = cytotoxicity" measured_result=inactive
compound=[O]=[Bi] endpoint_name="activity, negative = cytotoxicity" measured_result="7.56% [at 8.39 µM] (inactive)"
compound=CCOC(=O)[C@@H](C)Oc1ccc(Oc2nc3ccc(Cl)cc3o2)cc1 endpoint_name="activity, negative = cytotoxicity" measured_result=inactive
compound=Oc1ccc(Nc2ccccc2)cc1 endpoint_name="activity, negative = cytotoxicity" measured_result=inactive

Would you kindly look at the next entry?
Incoming: Find the recorded activity, negative = cytotoxicity belonging to O=C(O)c1ccc(CO)o1 and report it.
Outgoing: inactive

----------
assay: qHTS assay to identify aromatase inhibitors - cell viability counter screen (AID 743084); conditions: MCF-7 aro ERE viability, CellTiter-Fluor, 24 h; series mostly up to 70.3 µM;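 also: cells stimulated with testosterone during compound exposure; nearly all actives have a fitted effect of over 55% in size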
Inconclusive results are not listed. Active and inactive are the calls of the source. The call rests on the fitted dose curve; in most records, active means well fitted cell-killing curve with a large enough effect in the repeat runs; inconclusive means weak or mixed curves, or effect the other way; inactive means no such curve, though single readings can be large or run the other way.
Thanks in advance; please answer with one of these: active, inactive

Incoming: Write down the call the test reported for this compound. Item: COC(=O)[C@@H]1CC2=CC(=O)CC[C@]2(C)[C@@]23O[C@@H]2C[C@@]2(C)[C@@H](CC[C@@]24CCC(=O)O4)[C@H]13
Outgoing: inactive

Incoming: Also, CC1(C)C2=CCCC(C)(C)[C@]23CC[C@H]1C3 please.
Outgoing: inactive

Incoming: And then CCC(=O)OC/C=C/c1ccccc1 , what is it?
Outgoing: inactive

Incoming: Also check CC(=O)OCC(=O)[C@H]1CC[C@H]2[C@@H]3CCC4=CC(=O)CC[C@]4(C)[C@H]3CC[C@]12C
Outgoing: inactive

Incoming: # iterate: CCc1nn(CCCN2CCN(c3cccc(Cl)c3)CC2)c(=O)n1CCOc1ccccc1
Outgoing: active

Incoming: Follow-up entry: c1ccc(COCc2ccccc2)cc1
Outgoing: inactive

Incoming: Repeat with CCCC1C(CC)=CC(CC)=CN1c1ccccc1 (stereo not given)
Outgoing: inactive

Incoming: Ok, now CC(=O)Nc1ccccc1C
Outgoing: inactive

Incoming: Same lookup for CCCCCCCCCOC(C)=O , please.
Outgoing: inactive

Incoming: Also Nc1ccc(Cl)cc1[N+](=O)[O-] , if possible.
Outgoing: inactive

Incoming: // repeat for CN1CCN(c2c(F)cc3c(=O)c(C(=O)O)cn4c3c2OCN4C)CC1 and report
Outgoing: inactive

Incoming: Would you kindly repeat that for COCc1c(C(C)C)nc(C(C)C)c(/C=C/[C@@H](O)C[C@@H](O)CC(=O)O)c1-c1ccc(F)cc1 ?
Outgoing: inactive

Incoming: Again, but for CSc1ccc(Oc2ccc(S(N)(=O)=O)cc2CN(C)C)cc1C
Outgoing: inactive

Incoming: Next up: Cc1ccc(S)cc1
Outgoing: inactive

Incoming: Continue with CCC(C(=O)OCCOCCN(CC)CC)c1ccccc1 (stereo not given)
Outgoing: inactive

Incoming: Now this one: CC(=N\O)/C(C)=N/O
Outgoing: inactive

Incoming: And for COc1cc2[nH]c(=O)[nH]c(=O)c2cc1OC ?
Outgoing: inactive

Incoming: Also, O=C(CCCCCCCCC#CI)Oc1ccccc1 please.
Outgoing: inactive

Incoming: Also CCOc1cc(N)c(Cl)cc1C(=O)NCC1CN(Cc2ccc(F)cc2)CCO1 (stereo not given) ?
Outgoing: inactive

Incoming: Then this compound: CC(=O)[C@H]1CC[C@H]2[C@@H]3C=CC4=CC(=O)CC[C@@]4(C)[C@@H]3CC[C@]12C
Outgoing: inactive

Incoming: Would you kindly repeat that for CCn1nc(C)c2c1C(=O)NCC(c1ccc(O)cc1)=N2 ?
Outgoing: inactive

Incoming: How about C(=C\c1ccccc1)/CN1CCN(C(c2ccccc2)c2ccccc2)CC1 ?
Outgoing: inactive

Incoming: Try this compound too: CC1=NN(c2ccc(C(=O)O)cc2)C(=O)C1
Outgoing: inactive

Incoming: Queued: OCC1CC=CCC1 (stereo not given)
Outgoing: inactive

Incoming: Please answer likewise for O=C(O)c1ccc(CO)o1
Outgoing: inactive
